- testedOn: furin, P09958
- Sequence (P09958 whole entry): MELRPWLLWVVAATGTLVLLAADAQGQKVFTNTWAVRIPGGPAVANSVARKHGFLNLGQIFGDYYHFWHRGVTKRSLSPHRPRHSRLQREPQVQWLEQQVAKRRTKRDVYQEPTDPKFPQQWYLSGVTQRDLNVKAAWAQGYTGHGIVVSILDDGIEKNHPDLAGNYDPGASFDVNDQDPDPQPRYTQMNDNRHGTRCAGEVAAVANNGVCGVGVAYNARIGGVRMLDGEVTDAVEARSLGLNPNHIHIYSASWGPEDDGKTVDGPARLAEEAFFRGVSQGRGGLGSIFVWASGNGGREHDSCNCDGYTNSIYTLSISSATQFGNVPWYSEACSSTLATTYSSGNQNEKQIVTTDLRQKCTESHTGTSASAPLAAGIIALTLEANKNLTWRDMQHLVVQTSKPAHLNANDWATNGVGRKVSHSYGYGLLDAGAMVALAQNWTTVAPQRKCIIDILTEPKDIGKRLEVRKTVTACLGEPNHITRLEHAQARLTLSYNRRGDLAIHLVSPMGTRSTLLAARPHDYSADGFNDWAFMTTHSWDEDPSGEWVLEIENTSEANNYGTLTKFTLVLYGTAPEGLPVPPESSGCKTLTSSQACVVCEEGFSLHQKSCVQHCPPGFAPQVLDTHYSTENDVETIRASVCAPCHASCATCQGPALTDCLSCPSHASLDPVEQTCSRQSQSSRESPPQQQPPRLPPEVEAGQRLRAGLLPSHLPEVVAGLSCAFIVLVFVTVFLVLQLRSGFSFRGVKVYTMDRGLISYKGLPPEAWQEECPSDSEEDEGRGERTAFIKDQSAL
- measurementNotes: furin cleavage Z-score vs untreated control; higher = more cleavage, active = 3.5 or more, inactive = 1 or less, 8 variable residues between constant flanks;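 note: purified furin at 1:10 enzyme:substrate in 50 mM HEPES pH 7.5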
- experimentalParameters: 30 min
Some of the results follow. The true hit rate is not given.
Field 'call' accepts active, inactive

Please share the test call associated with CAVDSRPRRSAGNASASA [FS-887] .
active

Please share the test call associated with CAHTPCSGSWAGNASASA [HC1835] .
inactive

Please share the test call associated with CARESRPRRQAGNASASA [FS-1395] .
active

Please share the test call associated with CAKIMSGEVPAGNASASA [HC1094] .
inactive

Please share the test call associated with CATEECSQHLAGNASASA [HC1678] .
inactive

Please share the test call associated with CARPSRVARDAGNASASA [FS-1565] .
active

Please share the test call associated with CASSGRPRRSAGNASASA [FS-507] .
active

Please share the test call associated with CAEVVLSTWVAGNASASA [HC124] .
inactive

Please share the test call associated with CATSSRRKRDAGNASASA [FS-630] .
active

Please share the test call associated with CAEVVTSTWEAGNASASA [HC2252] .
inactive

Please share the test call associated with CAEVPCHRMSAGNASASA [HC2386] .
inactive

Please share the test call associated with CAIITRWKRDAGNASASA [FS-1013] .
active

Please share the test call associated with CATSNSLKRDAGNASASA [FS-885] .
inactive
